- EXPERIMENTAL_SYSTEM: T1, recombinant purified human IL-12 p70 (human, UniProt P29459 23-219)
- T1 construct: Disulfide-linked heterodimer of p35 and p40; also called hIL-12; Hu IL-12
- T1 sequence 1: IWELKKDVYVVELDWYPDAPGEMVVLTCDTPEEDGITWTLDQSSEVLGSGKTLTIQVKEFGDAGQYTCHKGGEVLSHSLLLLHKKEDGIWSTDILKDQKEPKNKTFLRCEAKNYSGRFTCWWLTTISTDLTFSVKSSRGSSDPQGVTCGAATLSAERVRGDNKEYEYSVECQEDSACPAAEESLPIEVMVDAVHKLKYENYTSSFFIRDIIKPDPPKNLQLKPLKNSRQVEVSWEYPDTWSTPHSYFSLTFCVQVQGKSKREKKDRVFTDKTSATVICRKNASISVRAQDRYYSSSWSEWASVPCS
- T1 sequence 2: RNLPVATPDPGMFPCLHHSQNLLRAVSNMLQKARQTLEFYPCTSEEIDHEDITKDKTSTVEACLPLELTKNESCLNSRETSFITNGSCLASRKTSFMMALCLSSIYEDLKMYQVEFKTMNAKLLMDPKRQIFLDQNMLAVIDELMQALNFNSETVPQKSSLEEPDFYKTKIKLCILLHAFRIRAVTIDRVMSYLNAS
- PROTOCOL_NOTES: SPR (Biacore) according to Example 1.1.B
METRIC_NAME: pKd
API: returns pKd as number; meaning -log10 of concentration in mol/L.

The value of pKd measured for the binder additional humanized anti-IL-12 antibody 1A6.12 (antibody, human IgG1, V domains shown, Only variable domains tied to it) VH: EVTLRESGPGLVKPTQTLTLTCTLYGFSLSTSGMGVSWIRQPPGKGLEWLAHIWWDGDNYYNPSLKSQLTISKDTSKNQVVLKLTSVDPVDTATYYCARRTRVNYAMDYWGQGTLVTVSS VL: DIQMTQSPSSLSASVGDRVTITCKASQSVSNDVAWFQQKPGKAPKLLIYYASNRYTGVPDRFSGSGYGTDFTFTISSLQPEDIATYYCQQDYNSPWTFGGGTKVEIKR turned out to be 9.40
